Origin of measurements: ChEMBL document CHEMBL5143508

compounds and their reported IC50 at 72 h
- Assay details: in vitro
- Measurement setup: human, WI-38 cells
- Description: Cytotoxicity against human WI-38 cells assessed as inhibition of cell growth incubated for 72 hrs by MTT assay

Record excerpt, results attached:
Mol	IC50 at 72 h
O=C(NCc1ccc(NC(=O)c2ccc(F)cc2N2CCCC2)cc1)OCc1cccnc1	> 100 µM
O=C(NCc1ccc(NC(=O)c2cc(Cl)ccc2N2CCCC2)cc1)OCc1cccnc1	> 100 µM

### Prompt Entry "O=C(NCc1ccc(NC(=O)c2cc(-c3ccccc3)ccc2N2CCCC2)cc1)OCc1cccnc1" : reported IC50 at 72 h = ?
### Response > 100 µM

### Prompt Input "Cc1ccc(N2CCCC2)c(C(=O)Nc2ccc(CNC(=O)OCc3cccnc3)cc2)c1"
### Response 40.6 µM

### Prompt Also "O=C(NCc1ccc(NC(=O)c2cc(F)ccc2N2CCCC2)cc1)OCc1cccnc1" , if possible.
### Response > 100 µM

### Prompt Query "O=C(NCc1ccc(NC(=O)c2cccc(F)c2N2CCCC2)cc1)OCc1cccnc1" next
### Response > 100 µM
